# maps each entry to its protein stability index
METHOD_DESCRIPTION: protein stability index of a GFP-peptide fusion (yeast GPS) (PSI 1-4); higher = more stable; sorted into four equal gates, so the index is relative within each strain
MEASUREMENT_CONDITIONS: pdr5∆
// keep it numeric: no unit symbol after the value

KEIKTNEYVIKTPVFTT [YMR129W/POM152] ... 1.98
CLTGTVAARMFHILLKL [ECM29] ... 2.03
WKDFTVEIAFLFRAIYL [YCG1] ... 2.36
ASSAAAGAAGAAAGGDA [RPP2B] ... 3.02
GRQTVLIKDNSAMVTTA [SRB2] ... 1.8
YSSAPLRTVKEVQFGLF [RPO21] ... 2.27

Value lookup for protein stability index; key = DITTSIMDNFLERTAIE [RPN1]
3.35

Value lookup for protein stability index; key = ISMLVTQLQRGGTSDMN [CSI1]
2.53

Value lookup for protein stability index; key = QQNPKFLQSQRQQQQRS [SWI1]
1.94

---

# maps each entry to its protein stability index
METHOD_DESCRIPTION: protein stability index of a GFP-peptide fusion (yeast GPS) (PSI 1-4); higher = more stable; sorted into four equal gates, so the index is relative within each strain
MEASUREMENT_CONDITIONS: san1∆
// keep it numeric: no unit symbol after the value

IKPKIALQDKEITSVLS [SNF12] ... 2.36
DPSGSYFPWKATAIGKG [PRE8] ... 2.82
DEIYIPINGNEAESQWY [CSI1] ... 3.11
LSIRLTNQLKSLKGLQS [RPN8] ... 2.62
LPNQFPLKIHRTPYLTS [SWI1] ... 1.65

Value lookup for protein stability index; key = DPAHSLNYTVINFKSRE [AAR2]
3.14

Value lookup for protein stability index; key = VLAKRMANLSQIYTQRA [SCL1]
2.34

Value lookup for protein stability index; key = FLESSKEIDPSQTTQLA [FAS2]
2.6

Value lookup for protein stability index; key = QEYLNPVIDTQIANEFN [YDL116W/NUP84]
2.71

Value lookup for protein stability index; key = FGATTNDDKKTEPDKPA [YJL041W/NSP1]
2.61

Value lookup for protein stability index; key = LHNFESVAPTKQREIVK [NUT1]
2.7

Value lookup for protein stability index; key = PLLYNSLCTVWKPNPSY [SRB5]
2.21

Value lookup for protein stability index; key = IFNGETLEDALRRIITD [GRR1]
2.07

Value lookup for protein stability index; key = SNLAATKSMVKIAEQYS [RPN11]
3.04

Value lookup for protein stability index; key = AAGVERLIFYPDEYEQL [PRE3]
3.1

Value lookup for protein stability index; key = LKTDGVRAVSITSFGFG [FAS2]
1.5

Value lookup for protein stability index; key = KQSGFGGQTKPVFHKKA [RPL42A]
2.89

Value lookup for protein stability index; key = FMRNGLLEGLNEKIEKR [UBP6]
3.21

---

METHOD_DESCRIPTION: protein stability index of a GFP-peptide fusion (yeast GPS) (PSI 1-4); higher = more stable; sorted into four equal gates, so the index is relative within each strain
MEASUREMENT_CONDITIONS: san1∆
RESULT_TYPE: protein stability index
// keep it numeric: no unit symbol after the value

Solved cases below.
HIPICVTFSFFNPQDTE [RRP45] ... 1.28
DVKVIMATNKIETLDPA [RPT2] ... 2.92
LNITTVFSHAQTAVTCE [RPS27A] ... 2.08
PTSPSYSPTSPSYSPTS [RPO21] ... 2.66
LQRKDYTSIVQCCEFMT [YML103C/NUP188] ... 2.05

Alright, here's another sequence for you.
Value lookup for protein stability index; key = LGQERATDLAGPANNPN [PRP8]
2.95

---

METHOD_DESCRIPTION: protein stability index of a GFP-peptide fusion (yeast GPS) (PSI 1-4); higher = more stable; sorted into four equal gates, so the index is relative within each strain
MEASUREMENT_CONDITIONS: pdr5∆
RESULT_TYPE: protein stability index
// keep it numeric: no unit symbol after the value

RKILKKTFKNPKYESLK [RPN5] ... 2.96

Value lookup for protein stability index; key = ASVTKEILGTAQSVGCR [RPL12A]
1.51

Value lookup for protein stability index; key = KINSWDQVLVKGGEQIS [YJL041W/NSP1]
2.56

Value lookup for protein stability index; key = LWDVATGETYQRFVGHK [ASC1]
3.42

Value lookup for protein stability index; key = TLLRLNELLDLTESQTE [RPN5]
2.18

Value lookup for protein stability index; key = EINNLIQLPASLAATYS [ARP9]
1.87

Value lookup for protein stability index; key = ELDILNKGWKLQSLNES [SRB4]
3.05

Value lookup for protein stability index; key = DIQAMCTEAGLLALRER [RPT2]
3.33

Value lookup for protein stability index; key = LIPEDKRDQYLKSASKE [RPL28]
3.1

Value lookup for protein stability index; key = KDLQWLEFARITPMNDD [SIN4]
3.19

Value lookup for protein stability index; key = SGGSVNLYHVTEDGWIY [PRE2]
3.16

Value lookup for protein stability index; key = IVMQLRKCCNHPYLFEG [ISW2]
2.53

Value lookup for protein stability index; key = EGKKVMAPYLPGSRASS [RPN2]
2.69

Value lookup for protein stability index; key = HNVFSKEQTIQLPSKFT [RPN14]
2.79

Value lookup for protein stability index; key = AAEFRYKYGYDMPCDVL [SCL1]
2.79

---

METHOD_DESCRIPTION: protein stability index of a GFP-peptide fusion (yeast GPS) (PSI 1-4); higher = more stable; sorted into four equal gates, so the index is relative within each strain
MEASUREMENT_CONDITIONS: doa10∆
Threshold check on protein stability index: at or above 2 gives y, strictly below gives n.

VTLRKSLYTNTSRKALE [RPL3] ... y
LIRNVGTNTYRLGEWSK [POP1] ... n
DFVRNELNDIDTKIDQV [SMC3] ... y

Determine whether measured protein stability index meets or exceeds 2 for AGLTRSDRSLSEDLFAD [BRR2]
y

Determine whether measured protein stability index meets or exceeds 2 for QTLLQRSEDPAGLGKTN [YGR119C/NUP57]
y

Determine whether measured protein stability index meets or exceeds 2 for LKESVEGEFNGDTIELA [PRE8]
y

Determine whether measured protein stability index meets or exceeds 2 for MYNGKDRAQNSYQPMYQ [SSN3]
y

Determine whether measured protein stability index meets or exceeds 2 for LQRKDYTSIVQCCEFMT [YML103C/NUP188]
n

Determine whether measured protein stability index meets or exceeds 2 for AARKAANKEKRAIILER [RPL7A]
n

Determine whether measured protein stability index meets or exceeds 2 for SELDSNDFFIIYYTPAF [YJL039C/NUP192]
n

Determine whether measured protein stability index meets or exceeds 2 for GELVLDIEVPDVNALKF [SNF12]
y

Determine whether measured protein stability index meets or exceeds 2 for CLTGTVAARMFHILLKL [ECM29]
y

Determine whether measured protein stability index meets or exceeds 2 for VYGEGTSRVTGILLLDS [YJL039C/NUP192]
y

---

METHOD_DESCRIPTION: protein stability index of a GFP-peptide fusion (yeast GPS) (PSI 1-4); higher = more stable; sorted into four equal gates, so the index is relative within each strain
MEASUREMENT_CONDITIONS: ubr1∆
RESULT_TYPE: protein stability index
// keep it numeric: no unit symbol after the value

SRIYKTIKVAGTPLLEV [SNU114] ... 2.23
GGTSDMNYLLDNKINEI [CSI1] ... 3.25
KKVGITGKYGVRYGSSL [RPL43A] ... 3.15
KETAPVIDTLAAGYGKI [RPL28] ... 2.53
VIWELDDSANIVNVNFM [DIS3] ... 2.99

Value lookup for protein stability index; key = LEEKLYQMQSNYESVFT [YIL149C/MLP2]
2.57

Value lookup for protein stability index; key = GKTYMGWWGHMGGPKQK [QCR8]
2.4

Value lookup for protein stability index; key = LLVGLIKTFYWLEQFLS [NUT1]
1.24

Value lookup for protein stability index; key = QCCEFMTMLTPNYLHLV [YML103C/NUP188]
1.68

Value lookup for protein stability index; key = SGDNHTQQSHEQQPEQP [RPT4]
2.95

Value lookup for protein stability index; key = ALELDDTVVSRVNEMVQ [ECM29]
3.16

Value lookup for protein stability index; key = QQNPKFLQSQRQQQQRS [SWI1]
2.05

Value lookup for protein stability index; key = SVNKNKRQAYAVSEKAG [RPL4A]
3.29

Value lookup for protein stability index; key = ASKGIDRLSLQDRQQLL [ECM29]
3.21

Value lookup for protein stability index; key = ILDTSQSESRQKRQLHD [SNU114]
3.01

Value lookup for protein stability index; key = NKRLSRGKKGLKKKVVD [RPS1B]
3.38

Value lookup for protein stability index; key = SAVKRLLHVAVSDSNDD [RPN2]
2.69

Value lookup for protein stability index; key = DEANIEIDPLTGMPISN [BRN1]
2.42

Value lookup for protein stability index; key = KKAEKAARKAEKAKSAG [RPL24A]
3.48

Value lookup for protein stability index; key = TVTIASSLNLEDTPAND [RPB8]
2.88

Value lookup for protein stability index; key = EDEEKILDNTENYDDTE [DSN1]
3.44

Value lookup for protein stability index; key = IGTANYKPLIEERMGQI [SMC4]
3.27

Value lookup for protein stability index; key = PGHEMEDFLDKSYYLNT [AAR2]
3.11

Value lookup for protein stability index; key = IIMFVGLQGSGKTTSCT [SRP54]
3.13

Value lookup for protein stability index; key = KRLTEDERIEKELNTER [CDC53]
2.31

Value lookup for protein stability index; key = SVLSSKPGSKPEKTSTE [SIR3]
3.2

Value lookup for protein stability index; key = DQEKKYGMSITETFEKP [RPB2]
3.5

Value lookup for protein stability index; key = VTVFLFMLILALFVFYS [COB]
1.99

Value lookup for protein stability index; key = DIFGDSELFDEWFEQNN [ISW2]
1.63

Value lookup for protein stability index; key = NGGNNTQQPGTNSHYNN [SNF2]
3.05
